// provenance: paper PMC12301332

# TARGET DESC: CXCR2 (Homo sapiens, UniProt P25025)
# Construct: expressed in transfected cells
# Sequence (P25025 1-360): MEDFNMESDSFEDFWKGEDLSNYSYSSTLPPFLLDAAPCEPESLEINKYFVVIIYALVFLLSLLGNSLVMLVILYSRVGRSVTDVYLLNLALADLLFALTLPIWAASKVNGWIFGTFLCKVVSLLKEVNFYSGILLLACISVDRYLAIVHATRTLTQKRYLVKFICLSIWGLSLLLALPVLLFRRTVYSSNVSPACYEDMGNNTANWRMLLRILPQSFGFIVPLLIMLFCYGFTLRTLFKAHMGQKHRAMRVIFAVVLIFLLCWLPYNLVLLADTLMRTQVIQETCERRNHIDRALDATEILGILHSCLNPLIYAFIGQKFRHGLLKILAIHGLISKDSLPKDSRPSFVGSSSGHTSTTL
# METHOD DESCRIPTION: NanoBRET-based G protein activation inhibition assay (REGA-SIGN Gαi1 dissociation) in HEK293A.CXCR2 cells
# Type: cell-based
# SETUP CONDITIONS: CXCL6 at EC80; normalized to Imax of navarixin = 100%; n = 3
Attribute: Imax Gαi1 (maximum observed inhibitory effect)
RECORDED ENDPOINT: Imax Gαi1 (maximum observed inhibitory effect) (%)

CC(CO)Nc1nc(SCc2cccc(F)c2F)nc2oncc12 (stereo not shown)	100
C[C@H](CO)Nc1nc(SCc2cccc(Cl)c2F)nc2[nH]c(=O)sc12 [AZ10397767, reference compound]	100
CC(CO)Nc1nc(SCc2cccc(F)c2F)nc2nc(N)sc12 (stereo not shown)	100

====

# TARGET DESC: CXCR2 (Homo sapiens, UniProt P25025)
# Construct: expressed in transfected cells
# METHOD DESCRIPTION: NanoBRET β-arrestin1 recruitment inhibition assay (NanoLux) in HEK293A cells
# Format: cell-based
# SETUP CONDITIONS: CXCL1 at EC80; normalized to Imax of navarixin = 100%; n = 3
Attribute: Imax βarr1 (maximum observed inhibitory effect)
RECORDED ENDPOINT: Imax βarr1 (maximum observed inhibitory effect)

C[C@H](CO)Nc1nc(SCc2cccc(Cl)c2F)nc2[nH]c(=O)sc12 [AZ10397767, reference compound]	100%
CC(CO)Nc1nc(SCc2cccc(F)c2F)nc2cnccc12 (centres unmarked)	100%
CC(CO)Nc1nc(SCc2cccc(F)c2F)nc2nc(N)sc12 (centres unmarked)	100%
CC(CO)Nc1nc(SCc2cccc(F)c2F)nc2[nH]cnc12 (centres unmarked)	100%
CC(CO)Nc1nc(SCc2cccc(F)c2F)nc2oncc12 (centres unmarked)	100%
CC(CO)Nc1nc(SCc2cccc(F)c2F)nc2ncsc12 (centres unmarked)	100%
CC(CCO)Nc1nc(SCc2cccc(F)c2F)nc2[nH]nnc12 (centres unmarked)	98.15 ± 4.28%
CCCC(C)CSc1nc(NC(C)CO)c2nn[nH]c2n1 (centres unmarked)	97.29 ± 1.61%

====

# TARGET DESC: CXCR2 (Homo sapiens, UniProt P25025)
# Construct: expressed in transfected cells
# METHOD DESCRIPTION: NanoBRET β-arrestin1 recruitment inhibition assay (NanoLux) in HEK293A cells
# Assay type: cell-based
# SETUP CONDITIONS: CXCL3 at EC80; mean, n = 3; read-out: IC50 βarr1
Param label: returns true (1) when IC50 < 3 µM, returns false (0) otherwise, including exact equality.

CCCC(C)CSc1nc(NC(C)CO)c2nn[nH]c2n1 (stereo not drawn)	true (1)
CC(CCO)Nc1nc(SCc2cccc(F)c2F)nc2[nH]nnc12 (stereo not drawn)	true (1)
CC(CO)Nc1nc(SCc2cccc(F)c2F)nc2ncsc12 (stereo not drawn)	false (0)
CC(CO)Nc1nc(SCc2cccc(F)c2F)nc2cnccc12 (stereo not drawn)	true (1)
CC(CO)Nc1nc(SCc2cccc(F)c2F)nc2oncc12 (stereo not drawn)	true (1)
CC(CO)Nc1nc(SCc2cccc(F)c2F)nc2[nH]cnc12 (stereo not drawn)	false (0)
